# Procedure Details: solvent given as SMILES
# Experimental Setup: in CC(C)O
Quick list: emission maximum per entry.
Your answer is read as nm, so omit the unit and give the number.

Answered cases to consult:
COCCOCCOCCOc1ccc(OCCOCCOCCOC)c(C=O)c1 :: 455
Cc1cccc2cc3c(=O)n(C)c(=O)n(C)c3nc12 :: 421
CN(C)c1ccc(/C=C/C=C2\CC/C(=C\c3ccc(N(C)C)cc3)C2=O)cc1 :: 687
CCC1=C(C)C2=C(C)c3c(C)c(CC)c(C)n3[B-](F)(F)[N+]2=C1C :: 534

The record that follows has no emission maximum shown yet.
Item under review: `CC(=O)c1ccc2ccc3c(NCCC(=O)NCCCCCCc4nc5c(=O)[nH]c(N)nc5n4[C@H]4C[C@H](O)[C@@H](CO)O4)ccc4ccc1c2c43` . Reported emission maximum?
557

====

# Procedure Details: solvent given as SMILES
# Experimental Setup: in Cc1ccccc1
Use 500 nm as the dividing line for emission maximum, with the line itself on the true side and lower values as false.

Worked examples follow.
CCOC(=O)CN1C(=O)C2=C(c3ccc(C#N)cc3)N(CC(=O)OCC)C(=O)C2=C1c1ccccc1 :: true
c1ccc2c(c1)[nH]c1cccnc12 :: false
c1ccc(-c2nc3ccccc3nc2-c2ccc(-n3c4ccccc4c4ccccc43)cc2)cc1 :: false
c1ccc(-c2nc(-c3ccccc3)nc(-c3ccc(-n4c5ccccc5c5c6c(ccc54)-c4ccccc4C6(c4ccccc4)c4ccccc4)cc3)n2)cc1 :: false
Cc1ccccc1N(c1ccccc1C)c1ccc2ccc3c(N(c4ccccc4C)c4ccccc4C)ccc4ccc1c2c43 :: false
Oc1cccc(/N=C/c2ccccc2Oc2ccccc2)c1 :: false
O=C(c1ccc(C(=O)c2ccc(N3c4ccccc4Oc4ccccc43)cc2)cc1)c1ccc(N2c3ccccc3Oc3ccccc32)cc1 :: true
CCCCCCCCn1c2ccc(/C=C/c3ccc(N(c4ccccc4)c4ccccc4)cc3)cc2c2cc3c(cc21)c1cc(/C=C/c2ccc(N(c4ccccc4)c4ccccc4)cc2)ccc1n3CCCCCCCC :: false
C(=C\c1ccc(-n2c3ccccc3c3ccccc32)cc1)/c1ccc(-c2ccc(/C=C/c3ccc(-n4c5ccccc5c5ccccc54)cc3)cc2)cc1 :: false
N#Cc1cccc2ccccc12 :: false

Attention now turns to another entry.
Decide: emission maximum of CCCCC1=Cc2c3ccc4cccc5ccc(c6cc(-c7ccc(N(c8ccccc8)c8ccccc8)cc7)n(c26)P1(=O)c1ccccc1)c3c45 (stereo unspecified) >= 500 nm?
true

====

# Procedure Details: solvent given as SMILES
# Experimental Setup: in CO
Observation Type: emission maximum (nm)
Your answer is read as nm, so omit the unit and give the number.

Answered cases to consult:
CCOC(=O)CCCCCn1c2ccc(Cl)cc2c(=O)c2cc3c(cc21)c(=O)c1cc(Cl)ccc1n3CCCCCC(=O)OCC :: 556
N#Cc1cc2ccccc2[nH]1 :: 335
CC1(C)CCc2c(c3ccccc3c3nc4ccccc4nc23)O1 :: 510.99
CCCC(=O)c1c2c(c(C(=O)CCC)c3c1OC(CC(=O)OC)(C(=O)O)O3)OCO2 :: 614
ClC(Cl)=C1c2ccccc2C(C2(Cl)c3ccccc3C(=C(Cl)Cl)c3ccccc32)c2ccccc21 (stereo unspecified) :: 449.43
COC(=O)c1nc2cnc(N)nc2n1Cc1ccccc1 :: 412
CCOC(=O)CC[N+]1=c2cc3c(cc2CCC1)=Cc1c(c2cc4c5c(c2oc1=O)CCCN5CCC4)O3 :: 681
CCN(CC)c1ccc(-c2nc3c(c4c2-c2ccccc2CC4)-c2ccccc2CC3)cc1 :: 461
COc1cccc(-n2c(-c3ccc(O)cc3)nc(C)c2C)c1 :: 369
O=C1c2ccccc2-c2c(-c3ccc([N+](=O)[O-])cc3)c(-c3ccc([N+](=O)[O-])cc3)c(-c3ccccc3)c3cccc1c23 :: 509

Item under review: `CSc1sc(C(N)=O)c2nnn(C)c(=O)c12` . Reported emission maximum?
521

Item under review: `CSc1ccc2c(c1)N(CCCN1CCN(C)CN1C)c1ccccc1S2` . Reported emission maximum?
453

Item under review: `CCNc1cc2oc3c/c(=[NH+]\CC)c(C)cc-3c(-c3ccccc3C(=O)OCC)c2cc1C` . Reported emission maximum?
555

Item under review: `Cc1cc2nc3cc(C)c(N)cc3[n+](-c3ccccc3)c2cc1N` . Reported emission maximum?
563.8

Item under review: `CCN(CC)c1ccc(/C=N/Nc2ccc(C#N)cc2)c(O)c1` . Reported emission maximum?
430

Item under review: `FC(F)(F)c1ccc(/C=C/c2ccc(-c3nnc(-c4ccc(-c5cc6ccccc6s5)cc4)o3)cc2)cc1` . Reported emission maximum?
389

Item under review: `CC1(C)Nc2cc(Cl)ccc2-c2[nH]c3ccccc3c(=O)c21` . Reported emission maximum?
513

Item under review: `CC1=C(c2cccs2)C(C)=[N+]2C1=C(c1ccccc1)c1c(C)c(-c3cccs3)c(C)n1[B-]2(F)F` . Reported emission maximum?
610

Item under review: `COc1ccc(-c2[nH]c(=O)n3c2-c2ccccc2C3=O)c(OC)c1` . Reported emission maximum?
507

Item under review: `CCN(CC)c1ccc2nc3c4ccccc4c(=O)cc-3oc2c1` . Reported emission maximum?
643

Item under review: `CN(C)c1ccc(/C=C/C(=O)c2ccc(Cl)cc2)cc1` . Reported emission maximum?
544

====

Quick list: emission maximum per entry.
# Procedure Details: solvent given as SMILES
# Experimental Setup: in ClC(Cl)Cl
Your answer is read as nm, so omit the unit and give the number.

COc1cccc2cc(-c3ccc([N+](=O)[O-])cc3)c(=O)oc12 :: 377
CCN(CC)c1ccc2c(c1)oc(=O)c1c(-c3ccccc3C(=O)O)c3ccc(=[N+](CC)CC)cc-3oc12 :: 636
CCCCCCCCN1C(=O)c2ccc3c4c(-c5ccc(-n6c7ccccc7c7ccccc76)cc5)cc5c6c(ccc(c7c(-c8ccc(-n9c%10ccccc%10c%10ccccc%109)cc8)cc(c2c37)C1=O)c64)C(=O)N(CCCCCCCC)C5=O :: 651
CCC1=C(C)C(=O)n2c1cc1c(CCC(=O)O)c(C)c(C)n1c2=O :: 500

Item under review: `CCC(CC)n1c2ccccc2c2cc3c(cc21)c1ccccc1n3C(CC)CC` . Reported emission maximum?
423

Item under review: `CCCCCCCCCCOc1ccc2cc(C3=C4C(=O)N(CC(OCC)OCC)C(c5cc6ccc(OCCCCCCCCCC)cc6o5)=C4C(=O)N3CC(OCC)OCC)oc2c1` . Reported emission maximum?
613

Item under review: `CN(C)c1ccc(-c2cc3c(ccc4c([N+](=O)[O-])cccc43)c(=O)o2)cc1` . Reported emission maximum?
634

Item under review: `CCOC(=O)/C(C#N)=C\c1ccc2c(c1)c1ccccc1n2-c1ccc(C)cc1` . Reported emission maximum?
482

Item under review: `CN(C)c1ccc(/C=C/c2cc[n+](C)cc2)cc1` . Reported emission maximum?
585

====

# Procedure Details: solvent given as SMILES
# Experimental Setup: in Cc1ccccc1
Observation Type: emission maximum (nm)
Your answer is read as nm, so omit the unit and give the number.

COc1ccccc1C1=NC2c3cccc4cccc(c34)C2N1c1ccccc1 (stereo not drawn) :: 379
COc1ccc(N(c2ccccc2)c2cc3ccc4cc(N(c5ccccc5)c5ccc(OC)cc5)cc5ccc(c2)c3c45)cc1 :: 482

The record that follows has no emission maximum shown yet.
Item under review: `CCC1(CC)c2cc(C#Cc3cc(C#Cc4ccc5c(c4)C(CC)(CC)c4cc(N(c6ccccc6)c6ccccc6)ccc4-5)c4ccc5c(C#Cc6ccc7c(c6)C(CC)(CC)c6cc(N(c8ccccc8)c8ccccc8)ccc6-7)cc(C#Cc6ccc7c(c6)C(CC)(CC)c6cc(N(c8ccccc8)c8ccccc8)ccc6-7)c6ccc3c4c65)ccc2-c2ccc(N(c3ccccc3)c3ccccc3)cc21` . Reported emission maximum?
535

====

# Procedure Details: solvent given as SMILES
# Experimental Setup: in Cc1ccccc1
Quick list: emission maximum per entry.
Answer format reminder: number followed by unit.

Answered cases to consult:
CCCCC1(c2ccccc2)Nc2c(-c3ccc(OC)cc3)ccc(-c3ccc(OC)cc3)c2N=C1c1ccccc1 (centres undefined) :: 525 nm
CCC1(CC)c2cc(/C=C/c3ccc(N(c4ccccc4)c4ccccc4)cc3)ccc2-c2ccc(/C=C/c3ccc(N(c4ccccc4)c4ccccc4)cc3)cc21 :: 451 nm
CCCCC(CC)Cn1c2cc(C#N)ccc2c2cc(-c3ccc(N(c4ccccc4)c4ccccc4)cc3)c(C#N)cc21 (centres undefined) :: 474 nm

The record that follows has no emission maximum shown yet.
Item under review: `c1ccc(-c2oc(-c3ccccc3)c3ccccc23)cc1` . Reported emission maximum?
454 nm

====

# Procedure Details: solvent given as SMILES
# Experimental Setup: in CO
# if measured emission maximum < 500 nm: yes (1)  # else: no (0)

Nc1ncnc2c1c(C#Cc1ccc3ccccc3c1)cn2[C@H]1C[C@H](O)[C@@H](CO)O1 :: yes (1)
COC(=O)c1nc2c(N(C)C)nc(N)nc2n1Cc1ccccc1 :: yes (1)
COC1=[N+]2C(=C(c3ccccc3)c3ccc(OC)n3[B-]2(F)F)C=C1SC#N :: no (0)
Cc1cccc2cc3c(=O)n(C)c(=O)n(C)c3nc12 :: yes (1)
COc1ccc(/C=C(\C)c2nc3ccccc3o2)cc1 :: yes (1)
CCOC(=O)CCOc1ccccc1C(c1c(C)[nH]c2ccccc12)c1c(C)[nH]c2ccccc12 :: yes (1)
Cc1nc2c(ccc3c2sc(/C=C/c2ccc(N(CCO)CCO)cc2)[n+]3C)s1 :: no (0)
CCOC(=O)COc1ccc(/C=C/C2=C3c4ccccc4C(c4[nH]c(C)cc4C)=[N+]3[B-](F)(F)n3c(C)cc(C)c32)cc1 :: no (0)

hey, is emission maximum for `C(#Cc1cccc(C#Cc2ccc(-n3c4ccccc4c4ccccc43)cc2)c1)c1ccc(-n2c3ccccc3c3ccccc32)cc1` lower than 500 nm or not?
yes (1)

hey, is emission maximum for O=C(O)C1=C/C(=C/C=[N+]2/c3cc(O)c(C[C@@H]4O[C@H](CO)[C@@H](O)C(O)[C@H]4O)cc3C[C@H]2C(=O)O)C[C@H](C(=O)O)N1 (some centres undefined) lower than 500 nm or not?
no (0)

hey, is emission maximum for `c1ccc2c(-n3cnc4ccccc43)cccc2c1` lower than 500 nm or not?
yes (1)

hey, is emission maximum for `N#Cc1ccc(N/N=C/c2ccc3ccccc3c2O)cc1` lower than 500 nm or not?
yes (1)

hey, is emission maximum for CCCCC1=Cc2c3ccc4cccc5ccc(c6cc(-c7ccc(N(c8ccccc8)c8ccccc8)cc7)n(c26)P1(=O)c1ccccc1)c3c45 (centres undefined) lower than 500 nm or not?
no (0)
